# ASSAY INFO: growth inhibition of DIPG cells – cell-based, MIPE4.0 library, CellTiter-Glo luminescence, qHTS (AID 1347066);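 note: cells exposed to compound for 48 hours before readout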
# STATED CONDITIONS: SU-DIPG-VI viability, CellTiter-Glo ATP luminescence
Inconclusive results are not listed. Activity calls are given as the source filed them. No cut-off is given here; in the data, nearly all actives have AC50 up to about 30 µM.
Outcome codes: active, inactive

COMPOUND	DISCRETE LABEL
Nc1ccc(-c2ccc3ncc4ccc(=O)n(-c5cccc(C(F)(F)F)c5)c4c3c2)cn1	active
C[C@@]12O[C@@H](C[C@]1(O)CO)n1c3ccccc3c3c4c(c5c6ccccc6n2c5c31)CNC4=O	active
O=C(Nc1ncc(-c2cc(C(F)F)nn2-c2c(Cl)cccc2Cl)s1)C1CC1	active
NC(=O)c1ccc2nc(-c3ccc(Oc4ccc(Cl)cc4)cc3)[nH]c2c1	inactive
Cc1c[nH]c(/C=C2\C(=O)Nc3ccccc32)c1CCC(=O)O	inactive
Cc1cccc(Nc2nc(-c3ccncc3)cs2)c1	inactive
O=C(NC1CCNCC1)c1[nH]ncc1NC(=O)c1c(Cl)cccc1Cl	inactive
Nc1nc2c(c(=O)[nH]1)N(C=O)[C@H](CNc1ccc(C(=O)N[C@@H](CCC(=O)O)C(=O)O)cc1)CN2	inactive
CC[C@H](/C=C/[C@@H](C)[C@H]1CC[C@H]2[C@@H]3CC=C4C[C@@H](O)CC[C@]4(C)[C@H]3CC[C@]12C)C(C)C	inactive
